Biological target: Endothelin-1 receptor (Sus scrofa)
Sequence (Q29010 whole entry): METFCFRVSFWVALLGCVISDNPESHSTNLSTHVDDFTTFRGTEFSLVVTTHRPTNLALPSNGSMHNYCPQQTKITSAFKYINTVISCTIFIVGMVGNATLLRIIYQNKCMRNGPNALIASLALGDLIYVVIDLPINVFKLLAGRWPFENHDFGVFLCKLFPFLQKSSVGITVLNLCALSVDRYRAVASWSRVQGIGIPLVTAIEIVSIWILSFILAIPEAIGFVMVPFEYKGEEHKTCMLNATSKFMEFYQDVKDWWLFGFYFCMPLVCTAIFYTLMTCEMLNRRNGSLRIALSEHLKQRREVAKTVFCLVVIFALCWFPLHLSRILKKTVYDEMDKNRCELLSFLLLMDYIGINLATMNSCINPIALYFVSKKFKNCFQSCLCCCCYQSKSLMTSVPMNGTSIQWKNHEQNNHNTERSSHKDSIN
Collected from the literature: IC50 of various compounds toward Endothelin-1 receptor (Sus scrofa).
Experimental Readout: IC50 (µM)

O=C1NCCc2ccc(c(Br)c2)Oc2cc(ccc2O)CCNC(=O)/C(=N/O)Cc2cc(Br)c(OS(=O)(=O)O)c(c2)Oc2c(Br)cc(cc2Br)C/C1=N\O :: 39
COc1ccc(CN(Cc2cc(OC)c(OC)c(OC)c2)C(Cc2c[nH]c3ccccc23)C(=O)O)cc1 (configuration not stated) :: 42
CCSCC(NC(=O)[C@@H](Cc1c(Br)[nH]c2ccccc12)NC(=O)C(CC(C)C)NC(=O)N1[C@H](C)CCC[C@@H]1C)C(=O)O (some centres not stated) :: 0.0019
O=C(O)C(Cc1c[nH]c2ccccc12)N(Cc1cc2c(cc1Cl)OCO2)C(=O)/C=C/c1ccc2c(c1)OCO2 (configuration not stated) :: 8.9
COc1ccc(CN(Cc2cc(OC)cc(OC)c2)C(Cc2ccc(O)cc2)C(=O)O)cc1 (configuration not stated) :: 36
CCCCC(NC(=O)[C@@H](Cc1c(Cl)[nH]c2ccccc12)NC(=O)C(NC(=O)N1[C@H](C)CCC[C@@H]1C)C(C)C)C(=O)O (some centres not stated) :: 0.033
Cc1[nH]c2ccccc2c1C[C@H]1NC(=O)[C@H](CC(C)C)NC(=O)[C@@H](C(C)C)NC(=O)[C@@H]2CCCN2C(=O)[C@@H](CC(=O)O)NC1=O :: 0.051
COc1ccc(CN(C(=O)/C=C/c2ccc3c(c2)OCO3)C(Cc2ccccc2)C(=O)O)cc1 (configuration not stated) :: 27

[P] CCOC(=O)CN(Cc1cc2c(cc1Cl)OCO2)C(Cc1ccc(O)cc1)C(=O)O (configuration not stated)
[Q] C=CCC(NC(=O)[C@@H](Cc1c(Br)[nH]c2ccccc12)NC(=O)C(CC(C)C)NC(=O)N1[C@H](C)CCC[C@@H]1C)C(=O)O (some centres not stated)
[R] CSCCC(NC(=O)[C@@H](Cc1c(C)[nH]c2ccccc12)NC(=O)C(NC(=O)N1[C@H](C)CCC[C@@H]1C)C1CC1)C(=O)O (some centres not stated)
[S] Cc1[nH]c2ccccc2c1C[C@@H](NC(=O)C(CC(C)C)NC(=O)N1[C@H](C)CCC[C@@H]1C)C(=O)NC(Cc1c[nH]cn1)C(=O)O (some centres not stated)
With regard to IC50, arrange the entries in ascending order, please. Form entry: ranked labels (order as requested).
R, S, Q, P
